- subjectOfTest: PGL-3 condensates (Caenorhabditis elegans)
- Sequence (G5EBV6 1-693): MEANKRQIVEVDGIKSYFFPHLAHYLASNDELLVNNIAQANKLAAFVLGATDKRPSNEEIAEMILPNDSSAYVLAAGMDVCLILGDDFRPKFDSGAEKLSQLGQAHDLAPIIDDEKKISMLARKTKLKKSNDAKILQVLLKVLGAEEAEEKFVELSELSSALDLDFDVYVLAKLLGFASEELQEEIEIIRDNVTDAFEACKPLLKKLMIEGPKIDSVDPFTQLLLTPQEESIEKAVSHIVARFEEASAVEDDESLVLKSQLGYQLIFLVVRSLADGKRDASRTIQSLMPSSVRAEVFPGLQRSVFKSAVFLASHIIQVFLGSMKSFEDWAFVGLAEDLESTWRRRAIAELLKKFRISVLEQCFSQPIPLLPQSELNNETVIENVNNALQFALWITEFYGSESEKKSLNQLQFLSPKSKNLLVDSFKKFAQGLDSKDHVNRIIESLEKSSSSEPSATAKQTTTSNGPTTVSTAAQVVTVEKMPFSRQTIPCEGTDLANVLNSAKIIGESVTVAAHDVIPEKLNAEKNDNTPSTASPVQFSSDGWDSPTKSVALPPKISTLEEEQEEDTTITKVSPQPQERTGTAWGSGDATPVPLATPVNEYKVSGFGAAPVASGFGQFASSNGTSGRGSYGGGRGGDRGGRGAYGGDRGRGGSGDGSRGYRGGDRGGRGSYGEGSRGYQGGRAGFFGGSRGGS
- protocol: Fluorescence imaging of dye partitioning in PGL-3 condensates (I-in, I-out)
- Format: physicochemical
- setupConditions: inside PGL-3 condensate; 10 μM dye, 5 μM protein; image 2; one day of experiments
Counter-ions that a name gives are not always drawn.
measureName: Intensity Inside with Dye 2

• CC/N=c1/cc2oc3cc(NCC)c(C)cc3c(-c3ccccc3C(=O)NCCOCCOCCN)c-2cc1C.O=C(O)C(F)(F)F = 6829.0
• CC(=O)N[C@H]1[C@H](Oc2ccc3c(c2)Oc2cc(O)ccc2C32OC(=O)c3ccccc32)O[C@H](CO)[C@H](O)[C@@H]1O (stereo partly shown) = 1794.0
• CC(=O)Oc1ccc2c(c1)Oc1cc(OC(C)=O)ccc1C21OC(=O)c2ccccc21 [Dye 9, Fluorescein diacetate] = 801.2
• COC(=O)c1ccccc1-c1c2ccc(=N)cc-2oc2cc(N)ccc12.Cl = 2858.2
• O=C([O-])c1ccccc1C1=c2cc3c4c(c2Oc2c1cc1c5c2CCCN5CCC1)CCC[N+]=4CCC3 [Dye 17, Rhodamine 101 inner salt] = 14061.0
• CC(=O)c1cc2cc3c4c(c2oc1=O)CCCN4CCC3 = 205.0
• N=C(N)c1ccc(-c2cc3ccc(C(=N)N)cc3[nH]2)cc1 = 211.0

====

- subjectOfTest: FUS-SNAP condensates (Homo sapiens, UniProt P35637)
- Sequence (P35637 whole entry): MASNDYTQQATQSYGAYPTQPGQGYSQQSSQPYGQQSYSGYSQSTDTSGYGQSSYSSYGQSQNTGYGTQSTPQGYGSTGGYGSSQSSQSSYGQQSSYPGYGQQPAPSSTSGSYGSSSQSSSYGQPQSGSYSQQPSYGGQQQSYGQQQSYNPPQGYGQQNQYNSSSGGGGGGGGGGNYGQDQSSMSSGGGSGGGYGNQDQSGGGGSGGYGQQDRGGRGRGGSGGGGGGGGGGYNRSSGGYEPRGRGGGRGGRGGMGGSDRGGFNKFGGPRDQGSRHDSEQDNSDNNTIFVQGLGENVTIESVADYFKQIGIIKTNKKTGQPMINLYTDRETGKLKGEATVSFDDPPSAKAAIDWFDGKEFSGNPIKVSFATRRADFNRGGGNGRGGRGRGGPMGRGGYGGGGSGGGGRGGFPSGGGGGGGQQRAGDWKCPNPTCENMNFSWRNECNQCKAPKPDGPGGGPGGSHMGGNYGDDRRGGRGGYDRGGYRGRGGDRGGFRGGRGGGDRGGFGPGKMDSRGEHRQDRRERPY
- protocol: Fluorescence imaging of dye partitioning in FUS-SNAP condensates (I-in, I-out)
- Format: physicochemical
- setupConditions: inside FUS-SNAP condensate; 10 μM dye, 5 μM protein; image 1; one day of experiments
Structures can show the parent of a compound that is named as a salt.
Examples of molecules with documented Intensity Inside with Dye 1 follow.
measureName: Intensity Inside with Dye 1

• O=C([O-])c1ccccc1C1=c2cc3c4c(c2Oc2c1cc1c5c2CCCN5CCC1)CCC[N+]=4CCC3 [Dye 17, Rhodamine 101 inner salt] = 4695.6
• O=C1OC2(c3ccc(O[C@@H]4O[C@H](CO)[C@H](O)[C@H](O)[C@H]4O)cc3Oc3cc(O[C@@H]4O[C@H](CO)[C@H](O)[C@H](O)[C@H]4O)ccc32)c2ccccc21 [Dye 12, Fluorescein di(β-D-galacto-pyranoside)] = 456.2
• COC(=O)c1ccccc1-c1c2ccc(=N)cc-2oc2cc(N)ccc12.Cl = 3123.1
• O=C(CCCC[C@@H]1SCC2NC(=O)NC21)NCCNC(=O)c1ccc(-c2c3ccc(=O)cc-3oc3ccc(O)cc23)c(C(=O)O)c1 (stereo partly drawn) = 4600.2
• CC(=O)Oc1ccc2c(c1)Oc1cc(OC(C)=O)ccc1C21OC(=O)c2ccccc21 [Dye 9, Fluorescein diacetate] = 5836.4
• CC/N=c1/cc2oc3cc(NCC)c(C)cc3c(-c3ccccc3C(=O)NCCOCCOCCN)c-2cc1C.O=C(O)C(F)(F)F = 3084.2

Source listed as patent US12174198B2.
